assay: stimulators of insulin release from INS-1E, primary screen, cell-based, 5 mM glucose, NPC library (AID 1117329); conditions: rat INS-1E insulin secretion, at 10 µM, active compounds read high
# key: entry, value: insulin secretion stimulation
MEASURED PARAMETER: insulin secretion stimulation (%)

[[record]]
compound = "CCC(C(=O)O)c1ccc(N2Cc3ccccc3C2=O)cc1 (centres undefined)"
unit_of_measure = "%"
observed_result = 1.25

[[record]]
compound = "Nc1c2c(nc3ccccc13)CCCC2"
unit_of_measure = "%"
observed_result = 32.7

[[record]]
compound = "CCCCC(C)(O)CC=C[C@H]1[C@H](O)CC(=O)[C@H]1CCCCCCC(=O)OC (some centres undefined)"
unit_of_measure = "%"
observed_result = 0.9

[[record]]
compound = "COCCc1ccc(OCC2CO2)cc1 (centres undefined)"
unit_of_measure = "%"
observed_result = 0.8


====

assay: stimulators of nuclear beta-catenin in C2C12, primary screen, imaging, WNT3A-conditioned medium, mouse C2C12, NPC library (AID 1117326); details: at 10 µM, active compounds read high
MEASURED PARAMETER: nuclear beta-catenin stimulation (%)

[[record]]
compound = "CCC(=O)Oc1ccc2c(c1)CC[C@@H]1[C@@H]2CC[C@@]2(C)[C@H]1C[C@@H](OC(=O)CC)[C@@H]2OC(=O)CC"
measured_parameter = "nuclear beta-catenin stimulation"
observed_result = 1.7

[[record]]
compound = "CCOc1ccc(C(=O)OCCN(CC)CC)cc1"
measured_parameter = "nuclear beta-catenin stimulation"
observed_result = -1

[[record]]
compound = "C[C@@H]1CCN(C(=O)[C@H](CCCN=C(N)N)NS(=O)(=O)c2cccc3c2NC[C@H](C)C3)[C@@H](C(=O)O)C1"
measured_parameter = "nuclear beta-catenin stimulation"
observed_result = 0.3

[[record]]
compound = "NC(=O)CC[C@@H]1NC(=O)[C@H](Cc2ccccc2)NC(=O)[C@H](Cc2ccc(O)cc2)NC(=O)CCSSC[C@@H](C(=O)N2CCC[C@H]2C(=O)N[C@@H](CCCN=C(N)N)C(=O)NCC(N)=O)NC(=O)[C@H](CC(N)=O)NC1=O"
measured_parameter = "nuclear beta-catenin stimulation"
observed_result = -0.6

[[record]]
compound = "CCC(CN)=C(c1ccccc1)c1ccccc1"
measured_parameter = "nuclear beta-catenin stimulation"
observed_result = -0.1

[[record]]
compound = "CN1C(CSCC(F)(F)F)Nc2cc(Cl)c(S(N)(=O)=O)cc2S1(=O)=O (stereo not drawn)"
measured_parameter = "nuclear beta-catenin stimulation"
observed_result = -0.4

[[record]]
compound = "Cc1ccc(-c2cc(C(F)(F)F)nn2-c2ccc(S(N)(=O)=O)cc2)cc1"
measured_parameter = "nuclear beta-catenin stimulation"
observed_result = 8.6

[[record]]
compound = "CCCc1c2oc(C(=O)O)cc(=O)c2cc2c(=O)cc(C(=O)O)n(CC)c12"
measured_parameter = "nuclear beta-catenin stimulation"
observed_result = -1.6


====

biological target: Mitogen-activated protein kinase 7 (Homo sapiens); experiment: ERK5 transactivation activators in reporter cells, primary screen, cell-based, HTS (AID 1508626); conditions: HeLa Gal4-ERK5 transactivation, 18 h, at 5 µM, active compounds read high;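 note: luciferase driven by Gal4-ERK5 fusion binding five Gal4 sites before minimal TATA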
Calls of active or inactive are those of the source.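 Rule for the calls: active = luciferase signal above three times the same-plate solvent-only control wells; inactive = the rest.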
# key: entry, value: luciferase signal
MEASURED PARAMETER: luciferase signal

[[record]]
molecule = "CN(C)CCCN1c2ccccc2CCc2ccc(Cl)cc21"
observed_result = "32 AU (inactive)"

[[record]]
molecule = "CN(C)CCOC(c1ccccc1)c1ccccc1"
observed_result = "36 AU (inactive)"

[[record]]
molecule = "CC(=O)CC(c1ccccc1)c1c(O)c2ccccc2oc1=O (stereo not given)"
observed_result = "136 AU (inactive)"

[[record]]
molecule = "CC(=O)O[C@]1(C(C)=O)CC[C@H]2[C@@H]3C=C(C)C4=CC(=O)CC[C@]4(C)[C@H]3CC[C@@]21C"
observed_result = "52 AU (inactive)"

[[record]]
molecule = "CCc1nc(N)nc(N)c1-c1ccc(Cl)cc1"
observed_result = "104 AU (inactive)"

[[record]]
molecule = "COc1cc(NC(C)CCCN)c2ncccc2c1 (stereo not given)"
observed_result = "32 AU (inactive)"

[[record]]
molecule = "CC(C)C(=O)Nc1ccc([N+](=O)[O-])c(C(F)(F)F)c1"
observed_result = "76 AU (inactive)"

[[record]]
molecule = "Cc1ccc(Cl)c(Nc2ccccc2C(=O)O)c1Cl"
observed_result = "48 AU (inactive)"

[[record]]
molecule = "CC(=O)CCCCn1c(=O)c2c(ncn2C)n(C)c1=O"
observed_result = "88 AU (inactive)"

[[record]]
molecule = "Nc1nc(N)c2nc(-c3ccccc3)c(N)nc2n1"
observed_result = "48 AU (inactive)"

[[record]]
molecule = "CC(C[N+](C)(C)C)OC(N)=O (stereo not given)"
observed_result = "56 AU (inactive)"

[[record]]
molecule = "CN(C)C(=O)Oc1ccc[n+](C)c1"
observed_result = "48 AU (inactive)"

[[record]]
molecule = "Clc1ccc2c(c1)C(N1CCNCC1)=Nc1ccccc1O2"
observed_result = "32 AU (inactive)"

[[record]]
molecule = "C#C[C@]1(O)CC[C@H]2[C@@H]3CCC4=CC(=O)CC[C@@H]4[C@H]3CC[C@@]21CC"
observed_result = "44 AU (inactive)"

[[record]]
molecule = "O[C@@H](c1cc(C(F)(F)F)nc2c(C(F)(F)F)cccc12)[C@H]1CCCCN1"
observed_result = "64 AU (inactive)"

